# measurement description: In vivo pharmacokinetics in male CD1 mice
# Set-up: species or system mouse
# measurement conditions: mouse, plasma; Table 6; IV 0.5 mg/kg, male CD1 mice; read-out: AUC (ng*h/ml) IV
Everything with AUC lower than 80 ng·h/mL is Not satisfied; everything else, including exactly 80 ng·h/mL, is Satisfied.

Data request: Assess whether reported AUC for O=C(COc1ccc(Br)cc1)NCCc1nc2ccccc2[nH]1 sits at 80 ng·h/mL or higher.
Data returned: Satisfied

Data request: Assess whether reported AUC for Cc1ccccc1OCC(=O)NCCc1nc2ccccc2[nH]1 sits at 80 ng·h/mL or higher.
Data returned: Satisfied

Data request: Assess whether reported AUC for Cc1ccccc1OCC(=O)NCCc1nc2ccccc2o1 sits at 80 ng·h/mL or higher.
Data returned: Not satisfied

Data request: Assess whether reported AUC for N#Cc1ccccc1OCC(=O)NCCc1nc2ccccc2[nH]1 sits at 80 ng·h/mL or higher.
Data returned: Not satisfied

Data request: Assess whether reported AUC for O=C(COc1ccc2ccccc2c1)NCCc1nc2ccccc2[nH]1 sits at 80 ng·h/mL or higher.
Data returned: Satisfied

Data request: Assess whether reported AUC for O=C(COc1ccccc1Br)NCCc1nc2ccccc2[nH]1 sits at 80 ng·h/mL or higher.
Data returned: Satisfied
